The measurements presented in this section are drawn from ChEMBL document CHEMBL5727040.

measurement target: Plasma kallikrein (Homo sapiens, UniProt P03952)
Sequence (P03952 20-390 limits assumed): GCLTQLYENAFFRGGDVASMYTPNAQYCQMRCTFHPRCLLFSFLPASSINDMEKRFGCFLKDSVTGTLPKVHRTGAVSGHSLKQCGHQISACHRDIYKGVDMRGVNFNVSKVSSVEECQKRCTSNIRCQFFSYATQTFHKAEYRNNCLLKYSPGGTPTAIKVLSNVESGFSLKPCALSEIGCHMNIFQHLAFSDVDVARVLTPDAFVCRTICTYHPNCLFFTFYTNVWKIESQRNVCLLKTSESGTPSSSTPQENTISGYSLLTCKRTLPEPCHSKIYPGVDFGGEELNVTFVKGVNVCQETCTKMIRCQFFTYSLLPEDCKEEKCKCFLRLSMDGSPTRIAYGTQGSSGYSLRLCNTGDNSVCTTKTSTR
Sequence (P03952 391-638 limits assumed): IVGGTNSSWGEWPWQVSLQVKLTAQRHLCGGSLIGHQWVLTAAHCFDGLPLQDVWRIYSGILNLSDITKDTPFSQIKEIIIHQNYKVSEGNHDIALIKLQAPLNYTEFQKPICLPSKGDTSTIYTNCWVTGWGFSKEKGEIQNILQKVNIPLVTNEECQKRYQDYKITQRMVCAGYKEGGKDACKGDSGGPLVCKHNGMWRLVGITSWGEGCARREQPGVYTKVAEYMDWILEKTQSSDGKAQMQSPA
test method notes: Kallikrein Assay: The effectiveness of a compound of the present invention as an inhibitor of Kallikrein can be determined using a relevant purified serine protease, and an appropriate synthetic substrate. The rate of hydrolysis of the chromogenic or fluorogenic substrate by the relevant serine protease was measured both in the absence and presence of compounds of the present invention. Assays were conducted at room temperature or at 37° C. […] A decrease in the rate of fluorescence change in the presence of inhibitor is indicative of enzyme inhibition. Such methods are known to one skilled in the art. […] Times required to achieve equilibration between enzyme and inhibitor were determined in control experiments. The reactions were performed under linear progress curve conditions and fluorescence increase measured at 405 Ex/510 Em nm. […] IC50 was determined by inflection point from a four parameter logistic curve fit. Ki was calculated using the Cheng Prusoff equation, Ki=IC50/(1+([S]/Km)).
pIC50: −log10 of the molar value.

# smiles repr, pIC50
records = [
    ("O=C(NC1CC=CC1)N1CCC(c2cccc([C@H](Cc3ccccc3)c3ccc(-c4cc(Cl)ccc4-n4cnnn4)c[n+]3[O-])c2)CC1", 6.16),
]

----------
measurement target: UniProtKB P03951
Sequence (P03951 19-387 limits assumed): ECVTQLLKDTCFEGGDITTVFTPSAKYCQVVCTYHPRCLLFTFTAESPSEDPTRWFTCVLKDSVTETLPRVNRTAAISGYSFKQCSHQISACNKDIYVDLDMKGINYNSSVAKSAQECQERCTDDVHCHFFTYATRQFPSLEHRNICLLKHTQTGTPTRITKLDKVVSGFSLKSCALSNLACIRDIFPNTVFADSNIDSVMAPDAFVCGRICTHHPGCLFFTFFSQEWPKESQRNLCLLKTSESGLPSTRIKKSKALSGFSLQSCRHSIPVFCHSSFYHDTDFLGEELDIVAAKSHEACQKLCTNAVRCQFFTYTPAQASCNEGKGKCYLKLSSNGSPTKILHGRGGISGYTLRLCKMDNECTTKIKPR
Sequence (P03951 388-625 limits assumed): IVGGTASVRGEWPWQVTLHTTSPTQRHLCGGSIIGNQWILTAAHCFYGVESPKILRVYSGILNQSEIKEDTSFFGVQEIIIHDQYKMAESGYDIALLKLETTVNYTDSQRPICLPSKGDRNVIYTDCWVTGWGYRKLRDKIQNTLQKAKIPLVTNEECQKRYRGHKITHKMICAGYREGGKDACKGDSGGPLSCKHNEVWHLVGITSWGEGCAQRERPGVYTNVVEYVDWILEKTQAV

# smiles repr, unit info, IC50
rows = [
    ("O=C(NC1CC=CC1)N1CCC(c2cccc([C@H](Cc3ccccc3)c3ccc(-c4cc(Cl)ccc4-n4cnnn4)c[n+]3[O-])c2)CC1", "nM", 18.5),
]
